- Study system: MAGL (Mus musculus)
- Construct: from tissue; host or cells: brain of wild-type C57Bl/6J mice
- Sequence (O35678 whole entry): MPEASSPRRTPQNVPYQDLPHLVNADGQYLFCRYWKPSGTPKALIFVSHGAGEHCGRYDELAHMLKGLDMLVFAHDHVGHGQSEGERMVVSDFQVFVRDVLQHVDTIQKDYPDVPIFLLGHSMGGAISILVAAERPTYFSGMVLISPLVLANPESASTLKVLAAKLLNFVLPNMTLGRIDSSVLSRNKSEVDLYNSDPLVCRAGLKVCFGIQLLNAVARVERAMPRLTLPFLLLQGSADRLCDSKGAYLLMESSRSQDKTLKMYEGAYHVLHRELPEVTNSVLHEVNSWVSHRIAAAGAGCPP
- Assay remarks: Mouse brain proteomes from inhibitor treated mice (oral gavage, brain proteomes analyzed 4 h after administration)
- Format: in vivo, mouse (C57Bl/6J)
- Test parameters: brain proteome 4 h after administration, read-out: % Inh 5 mg/kg MGLL (Mouse)
- Procedure: Compounds are tested to assess their MAGL and serine hydrolase activity using the following in vitro and in vivo assays. Preparation of Mouse Brain Proteomes from Inhibitor Treated Mice. Inhibitors were administered to wild-type C57Bl/6J by oral gavage in a vehicle of polyethylene glycol. […]
Property name: inhibition at 5 mg/kg

query: Retrieve inhibition at 5 mg/kg on MAGL (Mus musculus); query `CS(=O)(=O)N1CCC2(CCN(c3cc(C(F)(F)F)ccc3CN3CCN(C(=O)OC(C(F)(F)F)C(F)(F)F)CC3)CC2)C1`
result: ≥ 75%

query: Supply inhibition at 5 mg/kg measured with MAGL (Mus musculus) for `O=C(O)CN1CCC2(CC1)CCN(c1cc(C(F)(F)F)ccc1CN1CCCC13CCN(C(=O)OC(C(F)(F)F)C(F)(F)F)CC3)C2` .
result: ≤ 25%

query: Fetch value of inhibition at 5 mg/kg on MAGL (Mus musculus) for CN(Cc1ccc(C(F)(F)F)cc1N1CCOC(C(=O)O)C1)C1(C)CCN(C(=O)OC(C(F)(F)F)C(F)(F)F)CC1 (stereo not shown) .
result: ≤ 25%

query: For MAGL (Mus musculus), give inhibition at 5 mg/kg of the listed compound: `CC1(N(CC(=O)O)Cc2ccc(C(F)(F)F)cc2N2CCOCC2)CCN(C(=O)OC(C(F)(F)F)C(F)(F)F)CC1`
result: ≥ 75%

query: Give inhibition at 5 mg/kg only, for O=C(O)CN1CC2CC1CN2c1cc(CN2CCC3(CCN(C(=O)OC(C(F)(F)F)C(F)(F)F)CC3)C2)cc(C(F)(F)F)c1 (stereo not shown) , using MAGL (Mus musculus) data.
result: ≤ 25%

query: System MAGL (Mus musculus). Read-out inhibition at 5 mg/kg. Item `O=C(OC(C(F)(F)F)C(F)(F)F)N1CCC2(CC1)CN(Cc1ccc(C(F)(F)F)cc1N1CCCC1)C2` . Report value.
result: ≥ 75%

query: // fetch inhibition at 5 mg/kg for `CC(=O)N1CC2(CCN(c3cc(Cl)ccc3CN3CCN(C(=O)OC(C(F)(F)F)C(F)(F)F)CC3)CC2)C1` ; system: MAGL (Mus musculus)
result: ≥ 75%

query: # lookup: MAGL (Mus musculus) inhibition at 5 mg/kg, key = `CS(=O)(=O)N1CCC2(CCN(c3cc(Cl)ccc3CN3CCN(C(=O)OC(C(F)(F)F)C(F)(F)F)CC3)C2)CC1`
result: ≤ 25%

query: With MAGL (Mus musculus) as the test system, provide measured inhibition at 5 mg/kg for this compound: `O=C(OC(C(F)(F)F)C(F)(F)F)N1CCC2(CC1)CN(Cc1c(N3CCC4(CCOCC4)C3)cccc1C(F)(F)F)C2`
result: ≥ 75%

query: Send back MAGL (Mus musculus) inhibition at 5 mg/kg of `O=C(OC(C(F)(F)F)C(F)(F)F)N1CCC2(CCN(Cc3ccc(C(F)(F)F)cc3N3CC4CCC(C3)O4)CC2)C1` only.
result: ≥ 75%

query: Write down measured inhibition at 5 mg/kg (MAGL (Mus musculus)) for this compound. `CS(=O)(=O)N1CCC2(CCN(c3cccc(C(F)(F)F)c3CN3CC4(CCN(C(=O)OC(C(F)(F)F)C(F)(F)F)CC4)C3)CC2)C1`
result: 25 to 75%

query: State inhibition at 5 mg/kg on MAGL (Mus musculus). Entry: `CC(C)(C#Cc1c(F)cccc1CN1CCCC12CCN(C(=O)OC(C(F)(F)F)C(F)(F)F)CC2)C(=O)O`
result: ≥ 75%

query: Check MAGL (Mus musculus) data and give inhibition at 5 mg/kg for `O=C(O)CN1CCC2(CC1)CN(c1cc(C(F)(F)F)ccc1CN1CCCC13CCN(C(=O)OC(C(F)(F)F)C(F)(F)F)CC3)C2` .
result: ≤ 25%
